assay_explanation: Quantitative High-Throughput drug screen in 47 multiple myeloma cell lines against the NCATS MIPE library collection: KMS11_JCRBsus cell viability assay (AID 1919873); note: nearly all actives have a fitted effect of over 50% in size
experimental_parameters: KMS11 myeloma viability, CellTiter-Glo ATP luminescence, 48 h; series mostly up to 45.8 µM
Records with an inconclusive call do not appear. The source made the active and inactive calls. Calls come from the whole dose curve; as a rule, active = well fitted cell-killing curve with a large enough effect; inconclusive = small, poorly fitted or top-dose-only effect, or effect the other way; inactive = no such curve, though single readings can be large or run the other way.
Entry note: the call must match one of active, inactive

Qu. So what was the verdict on C=CC(=O)Nc1cccc(Oc2nc(Nc3ccc(N4CCN(C)CC4)cc3)ncc2Cl)c1 in this test?
Ans. active

* * *

assay_explanation: qHTS of pediatric cancer cell lines to identify multiple opportunities for drug repurposing: Confirmatory screen for TC32 cells (AID 1347118);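 note: cells exposed to compound for 48 h before the read; nearly all actives have a fitted effect of over 65% in size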
experimental_parameters: TC32 Ewing sarcoma cells viability qHTS; series mostly up to 45.9 µM
Method: Drug repurposing or repositioning has been offered as a strategy for drug development in oncology programs. […] [1] Shen, M et al. Quantitative high-throughput phenotypic screening of pediatric cancer cell lines identifies multiple opportunities for drug repurposing. […] Cells were assayed in growth media at a density of 500-1,000 cells/well. […] After a 15min incubation at room temperature, samples were analyzed for luminescence intensity using a ViewLux High-throughput CCD imager equipped with clear filters.
Records with an inconclusive call do not appear. Calls of active or inactive are those of the source. The call rests on the fitted dose curve; in most records, active means well fitted cell-killing curve with a large enough effect; inconclusive means small, poorly fitted or top-dose-only effect; inactive means no such curve, though single readings can be large or run the other way.
Respond with a class label; see active, inactive

Take a look at these entries with their results.
compound_string=CC(C)C[C@H](NC(=O)CNC(=O)c1cc(Cl)ccc1Cl)B(O)O category=inactive
compound_string=Cc1c(CN2CCN(S(C)(=O)=O)CC2)sc2c(N3CCOCC3)nc(-c3cnc(N)nc3)nc12 category=active
compound_string=Cc1ccc(-c2ncn(-c3ccc(Nc4nccc(-c5cccc(N6CCOCC6)c5)n4)cc3)n2)cn1 category=active
compound_string=CC(=O)Nc1nc(C)c(-c2ccc(Cl)c(S(=O)(=O)NCCO)c2)s1 category=active
compound_string=CC(C)(O)c1cc2nc(-c3cnc(N)nc3)nc(N3CCOCC3)c2s1 category=active

Qu. State the result this test recorded for CN(C)CC(C)(C)CNc1nn2c(-c3ccccc3)nnc2cc1C1CCC1 .
Ans. active

Qu. Field: outcome | Entry: CCC(=C(c1ccccc1)c1ccc(OCCN(C)C)cc1)c1ccccc1
Ans. active

Qu. So what was the verdict on C#Cc1cccc(Nc2ncnc3cc(OC)c(OCCCCCCC(=O)NO)cc23)c1 in this test?
Ans. active

Qu. Check the results log: what was the call for CCN1CCN(Cc2ccc(-c3cc4c(N[C@H](C)c5ccccc5)ncnc4[nH]3)cc2)CC1 ?
Ans. active
